Test Target: recombinant human 5-HT4 receptor (Homo sapiens, UniProt Q13639)
Sequence (Q13639 whole entry): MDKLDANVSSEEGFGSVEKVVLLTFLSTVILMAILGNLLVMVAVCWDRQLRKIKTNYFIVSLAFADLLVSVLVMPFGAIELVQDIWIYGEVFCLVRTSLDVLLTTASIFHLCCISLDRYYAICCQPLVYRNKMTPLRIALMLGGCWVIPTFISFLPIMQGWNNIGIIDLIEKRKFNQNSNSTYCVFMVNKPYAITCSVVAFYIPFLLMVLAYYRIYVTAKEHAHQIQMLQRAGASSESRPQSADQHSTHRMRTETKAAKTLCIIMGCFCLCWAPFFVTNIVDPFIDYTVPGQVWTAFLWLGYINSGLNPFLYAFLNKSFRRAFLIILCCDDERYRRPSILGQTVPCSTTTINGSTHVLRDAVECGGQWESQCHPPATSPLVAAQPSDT
Method Description: Determination of EC50 values for 5-HT4 receptor (CHO cells, pCRE-Luc reporter)
Run Parameters: luciferase reporter, 4 hours incubation, read-out: 5-HT4 receptor agonistic binding in-vitro EC50
pEC50: −log10 of the molar value. Structures can show the parent of a compound that is named as a salt.
Reported pEC50 values for a set of compounds

Completed entries (count: 4):
Nc1ccc(C(=O)NCC2C3CN(CC4CCOCC4)CC23)c2c1CCCO2 (stereo not drawn)    7.70 to 8.00
COCCCN1CC2C(CNC(=O)c3cc(Br)c(N)c4c3OCC4)C2C1 (stereo not drawn) [Example 65, oxalate]    7.70 to 8.00
CC(C)(O)CN1CC2C(CNC(=O)c3cc(Cl)c(N)c4c3OCC4)C2C1 (stereo not drawn) [Example 42, oxalate]    8.00 to 8.29
COC(=O)N1CCC(N2CC3C(CNC(=O)c4cc(Cl)c(N)c5ccoc45)C3C2)CC1 (stereo not drawn) [Example 17, oxalate]    8.00 to 8.29

// query I'd like to know its pEC50. The compound in question is Nc1c(Br)cc(C(=O)NCC2C3CN(C4CCOCC4)CC23)c2c1CCO2 (stereo not drawn) [Example 29, oxalate]
// result 7.70 to 8.00

// query I'd like to know its pEC50. The compound in question is Cc1cc2c(N)c(Cl)cc(C(=O)NCC3C4CN(CC(C)(C)O)CC34)c2o1 (stereo not drawn)
// result 8.00 to 8.29

// query I'd like to know its pEC50. The compound in question is Nc1c(Cl)cc(C(=O)NCC2C3CN(CC4(F)CCOCC4)CC23)c2c1CCCO2 (stereo not drawn)
// result ≥ 9.00

// query I'd like to know its pEC50. The compound in question is Cc1cc2c(N)c(Cl)cc(C(=O)NCC3C4CN(CC5CCOCC5)CC34)c2o1 (stereo not drawn) [Example 18, hydrochloride]
// result 8.30 to 8.96

// query I'd like to know its pEC50. The compound in question is Nc1c(Cl)cc(C(=O)NCC2C3CN(C4CCOCC4)CC23)c2c1CCO2 (stereo not drawn) [Example 28, oxalate]
// result 8.00 to 8.29
